Provide the reported percent of cells in the gate of each item.
molecular target: T1, mesothelin-Fc recombinant protein (human, UniProt Q13421 296-580, limits assumed); test: flow cytometry, T cells with CAR mRNA, mesothelin-Fc + PE-anti-IgG-Fc; Control 0.97
T1 construct: construct not described; also called Meso-Fc; not shown: Fc part
T1 sequence (Q13421 other isoform, or with tags, fused parts or gaps limits assumed): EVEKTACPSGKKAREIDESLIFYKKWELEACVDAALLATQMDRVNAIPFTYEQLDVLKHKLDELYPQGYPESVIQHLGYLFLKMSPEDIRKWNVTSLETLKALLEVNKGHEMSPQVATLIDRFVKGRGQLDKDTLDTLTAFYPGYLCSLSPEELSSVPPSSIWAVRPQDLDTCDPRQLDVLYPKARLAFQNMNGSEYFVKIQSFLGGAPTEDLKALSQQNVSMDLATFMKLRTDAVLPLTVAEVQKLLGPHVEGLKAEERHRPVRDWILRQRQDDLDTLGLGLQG
Provide the reading as a plain figure in %.

(Q) Recorded percent of cells in the gate for anti-mesothelin scFv-M32 (scFv, On mRNA-electroporated T cells as CAR) scFv: DIRMTQSPSSLSASVGDRVTVTCQASEDINNSLNWYQQKPGKAPQLLIYDASDLETGVPSRFSGRGSGRDFTLTISSLQPEDFATYYCQQLNSYPLTFGGGTKLEIKGGGGSGGGGSGGGGSQVQLVQSGAEVKKPGASVKVSCKASGFTFIGYYLHWVRQAPGQGLEWMGIINPSGGRTSMAQKFQGRVSMTTDTSTGTVYLDLGRLGSDDTAVYYCARADNWNAGSMDVWGNGTTVTVSS , please?
(A) 84.1

(Q) Fill blank: measured percent of cells in the gate of the binder anti-mesothelin scFv-M27 (scFv, On mRNA-electroporated T cells as CAR) scFv: EIVLTQSPGTLSLSPGERATLSCRASQPIVASHLAWYQHKPGQAPRLLIYGASTRAAGIPDRFSGSGSGTDFTLTISRLEPEDFAVYFCQQYGISPFTFGPGTKVDIKGGGGSGGGGSGGGGSQVQLVQSGAEVKKPGESLKISCQGSGYSFTDYWIGWVRQAPGQGLEWMGWITPNNGNTNYAPKFQGRVTLTTDTSTSTAYMELRSLTSDDTAVYFCARRGRNSSGYLYYYSMDVWGQGTTVTVSS is ____.
(A) 76.3

(Q) For anti-mesothelin scFv-M28 (scFv, On mRNA-electroporated T cells as CAR) scFv: QSALTQPPSASGSPGQSVTISCSGTSSDVGGYNFVSWYQHHPGKAPKLMIYEVSKRPSGVPDRFSGSKSGNTASLTVSGLQAEDEADYYCSSYAGRNNPYLFGTGTKLTVLGGGGSGGGGSGGGGSQLQLQESGAEVKKPGSSVKVSCKASGGTFSSYAISWVRQAPGQGLEWMGGIIPIFGTANYAQKFQGRVTITADESTSTAYMELSSLRSEDTAVYYCARDLGGYSYGHGLDYWGQGTLVTVSS , what is its reported percent of cells in the gate?
(A) 82.8
